Measured relative binding ratio of individual entries
Biological target: T1, Soluble CDCP1 extracellular domain (CDCP1-ECD) (SEQ ID NO:30) fused to Streptavidin Binding Protein (SBP) (human, UniProt Q9H5V8 30-663)
T1 construct: also called SBP-CDCP1-ECD
T1 sequence: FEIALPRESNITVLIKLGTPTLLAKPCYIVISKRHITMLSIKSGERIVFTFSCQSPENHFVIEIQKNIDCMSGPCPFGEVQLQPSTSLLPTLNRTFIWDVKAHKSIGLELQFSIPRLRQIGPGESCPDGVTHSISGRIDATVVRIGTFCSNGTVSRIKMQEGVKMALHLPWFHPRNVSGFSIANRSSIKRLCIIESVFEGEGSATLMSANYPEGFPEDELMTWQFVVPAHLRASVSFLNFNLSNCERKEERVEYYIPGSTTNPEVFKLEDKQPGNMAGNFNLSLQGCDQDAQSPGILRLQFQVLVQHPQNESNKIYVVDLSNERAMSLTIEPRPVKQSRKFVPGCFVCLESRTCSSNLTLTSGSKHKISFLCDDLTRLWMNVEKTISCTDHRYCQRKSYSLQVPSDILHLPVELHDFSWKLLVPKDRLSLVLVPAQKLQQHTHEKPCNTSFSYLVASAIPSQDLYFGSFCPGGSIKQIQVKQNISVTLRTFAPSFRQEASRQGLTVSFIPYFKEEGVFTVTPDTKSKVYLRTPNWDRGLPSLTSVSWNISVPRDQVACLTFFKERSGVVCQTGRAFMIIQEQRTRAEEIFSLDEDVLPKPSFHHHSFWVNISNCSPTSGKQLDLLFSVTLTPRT
Test: ELISA on captured SBP-CDCP1-ECD, ratio relative to chimeric CUB4 (chHC4)
Give a plain numeric answer without units written out.

Record excerpt, results attached:
Binder	relative binding ratio
hHC4-03 / hLC4-c (antibody, V domains shown) VH: EVQLLESGGGLVQPGGSLRLSCAASGFTFNSYGMSWVRQAPGKGLEWVSAISSGGSYTYYPDSVKGRFTISRDNSKNTLYLQMNSLRAEDTAVYYCAKHPDYDGVWFAYWGQGTLVTVSS VL: EIVMTQSPATLSVSPGERATLSCSVSSSVFYVHWYQQKPGQAPRLLIYDTSKLASGIPARFSGSGSGTEFTLTISSLQSEDFAVYYCQQWNSNPPTFGGGTKVEIK	0.07
hHC4-d / hLC4-e (antibody, V domains shown) VH: EVQLLESGGGLVQPGGSLRLSCAASGFTFNSYGMSWVRQAPGKGLEWVSTISSGGSYTYYPDSVKGRFTISRDNSKNTLYLQMNSLRAEDTAVYYCAKHPDYDGVWFAYWGQGTLVTVSS VL: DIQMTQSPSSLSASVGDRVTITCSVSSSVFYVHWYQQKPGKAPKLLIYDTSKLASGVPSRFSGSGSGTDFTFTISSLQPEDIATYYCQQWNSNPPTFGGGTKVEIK	0.27

Could you now look at the following binder, please?
Enquiry: Sample hHC4-04 / hLC4-J (antibody, V domains shown) VH: EVQLLESGGGLVQPGGSLRLSCAASGFTFNSYGMSWVRQAPGKGLEWVSTISSGGSYTYYPDSVKGRFTISRDNSKNTLYLQMNSLRAEDTAVYYCARHPDYDGVWFAYWGQGTLVTVSS VL: EIVMTQSPATLSLSPGERATMSCRASSSVFYLHWYQQKPGQAPRLWIYDTSKLASGIPARFSGSGSGTDFTLTISSLQPEDFAVYYCQQWNSNPPTFGGGTKVEIK — what was its relative binding ratio?
Return: 0.4

Recorded values, source patent US20110052582A1.
